Measured yeast fitness values are reported for all entries that follow.
B1: tRNA (parent)
chain: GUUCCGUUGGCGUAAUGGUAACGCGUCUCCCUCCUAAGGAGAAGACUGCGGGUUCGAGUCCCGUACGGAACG

variants of: B1; assay: yeast fitness relative to wild type (ratio to wild type); higher = fitter; tRNA-Arg(CCU), competitive growth, 37 C, YPD
Variants at the floor of the assay were thinned out.

Worked cases, yeast fitness given:
{"mutantId": "C5U C22A C33G C55U", "endpointResult": "≤ 0.5"}
{"mutantId": "G25U C29G A42C", "endpointResult": "≤ 0.5"}
{"mutantId": "C34A G51A", "endpointResult": 0.656}

Need yeast fitness of C5A C30G A36G A57U A65U , thanks.
≤ 0.5

Need yeast fitness of G9A U13A , thanks.
1.03

Need yeast fitness of C5U U7A A14G , thanks.
0.538

Need yeast fitness of A14C U16A U54A G58C , thanks.
≤ 0.5

Need yeast fitness of U2G C24A , thanks.
0.82

Need yeast fitness of C24G A36C U54G , thanks.
≤ 0.5
